# measured_on: T1, CD27 protein (His-tagged, Sino Biological Inc. 10039-H08B1) (human, UniProt P26842 20-192)
# T1 construct: bought; coated onto ELISA plates; also called human CD27; recombinant protein; not shown: His tag
# T1 sequence (looked up): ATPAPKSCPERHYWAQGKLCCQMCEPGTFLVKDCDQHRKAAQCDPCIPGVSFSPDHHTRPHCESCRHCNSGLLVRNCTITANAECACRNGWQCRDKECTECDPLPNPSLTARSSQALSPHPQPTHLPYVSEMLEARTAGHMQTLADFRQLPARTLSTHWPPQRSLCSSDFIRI
# assay_comment: ELISA on coated His-tagged CD27; further: test concentration or dose not given here
// ELISA [abs. corr.] lookup, one value per entry
measured_parameter: ELISA [abs. corr.] (abs. corr.)

[[record]]
binder = "P018.S.04.A.D04 (antibody, V domains shown, V regions on human Ig constant parts; also called AB27_72) VH: QSVEESGGRLVTPGTPLTLTCTVSGIDLSSYSMTWVRQAPGKGLEWIGFINTGGRGYYASWAKGRFTISKTSTTVDLKITSPTTEDTATYFCARDAGSSRGYYRDLWGQGTLVTVSS VL: AYDMTQTPASVSAAVGGTVTIKCQASEDIYSLLAWYQQKPGQPPKLLIYDASDLASGVPSRFSGSGSGTDYTLTISGVESADAATYYCQQGYTTSTTVDNIFGGGTEVVVK"
measured_parameter = "ELISA [abs. corr.]"
recorded_number = 3.7

[[record]]
binder = "P018.S.05.A.C06 (antibody, V domains shown, V regions on human Ig constant parts; also called AB27_85) VH: QSLEESGGRLVTPGTPLTLTCTASGFSLSNYYITWVRQAPGEGLEWIGTISTAGNTYFASWAKGRFTISRTSTTVDLKMTSPTTEDTATYFCARDGAGDSNYYRNLWGQGTLVTVSS VL: DIVLTQTPASVEAAVGGTVTIKCQASQSIDRFLAWYQQKPGQPPKLLIVDASTLESGVPSRFSGSGSGTEFTLTISDLESDNAATYYCQQGYSISDIDNVFGGGTEVVVK"
measured_parameter = "ELISA [abs. corr.]"
recorded_number = 3.35

[[record]]
binder = "P018.S.02.A.G04 (antibody, V domains shown, V regions on human Ig constant parts; also called AB27_39) VH: QSLEESGGRLVTPGGSLTLTCTVSGIDLSSYAMGWVRQAPGKGLEYIGIIYTSNRTHYATWAKGRFTISKSSTTVDLKATSLTTEDTATYFCGRYGRGSGGYYYGMDLWGPGTLVTVSS VL: DIVMTQTPASVEAAVGGTVTIKCQASQSGDNYCSWYQQKPGQPPKLLIYQASKLTSGVPSRFRGSRSGTEYTLTISDLESADAATYYCQNYCAGSGVCLGIAFGGGTEVVVK"
measured_parameter = "ELISA [abs. corr.]"
recorded_number = 3.19

[[record]]
binder = "P018.S.03.A.C04 (antibody, V domains shown, V regions on human Ig constant parts; also called AB27_45) VH: QSVEESGGRLVTPGTPLTLTCTVSGVDLSRYAMSWVRQAPGEGLEWIGTIWYSGTTYYASWAKGRFTISKTSSTTVDLKMTSLTAADTATYFCARDPLYVGGNSGSDLWGPGTLVTVSS VL: DVVMTQTPASVSAAVGGTVTINCQASQSIGSSLAWYQQKPGQRPKLLIYYASTLASGVPSRFSGSGSGTEFTLTISDLESADAATYYCQSNYGAASSSYGAFGGGTEVVVK"
measured_parameter = "ELISA [abs. corr.]"
recorded_number = 3.52

[[record]]
binder = "P018.S.09.A.C06 (antibody, V domains shown, V regions on human Ig constant parts; also called AB27_149) VH: QSVEESGGRLVTPGTPLTLTCTVSGFSLSTYAMGWVRQAPGKGLEWIGIIYTGGSTYYASWAEGRFTISKTSTTVDLKITSPTPEDTATYFCTRDLGATYDYFDLWGQGTLVTVSS VL: AYDMTQTPASVEVAVGGTVTIKCQASQSISTALAWYQQKPGQRPKLLIYDTSDLASGVPSRFSGSGSGTEFTLTISGVESADAATYYCQQGYRHTNVDNPFGGGTGVVVK"
measured_parameter = "ELISA [abs. corr.]"
recorded_number = 3.45

